All figures here come from patent US20260116991A1.

target: biotinylated labeled human GPC3 protein (produced in-house) (human, UniProt P51654 25-559, limits assumed, biotinylated (Dojindo, Cat. No. LK03); sites not stated); test: ELISA, biotinylated human GPC3 protein
readout_name: OD450 at 13.33 nM (OD450)
Give a bare numeral; the unit OD450 is implied.

binder	OD450 at 13.33 nM (OD450)
hAb007LH3L1 (antibody, human IgG1, V domains shown, Humanized F3.81.19; VH H3 + VL L1; expressed as human IgG1) VH: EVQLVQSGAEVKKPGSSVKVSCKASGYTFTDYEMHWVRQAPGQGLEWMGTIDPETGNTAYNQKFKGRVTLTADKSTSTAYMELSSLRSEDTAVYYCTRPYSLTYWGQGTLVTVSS VL: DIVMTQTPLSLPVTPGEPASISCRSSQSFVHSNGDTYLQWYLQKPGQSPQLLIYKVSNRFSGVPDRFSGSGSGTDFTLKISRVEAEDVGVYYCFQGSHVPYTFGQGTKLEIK	2.16
hAb001H1aL1b (antibody, human IgG1, V domains shown, Humanized F2.169.2; VH H1a + VL L1b; expressed as human IgG1) VH: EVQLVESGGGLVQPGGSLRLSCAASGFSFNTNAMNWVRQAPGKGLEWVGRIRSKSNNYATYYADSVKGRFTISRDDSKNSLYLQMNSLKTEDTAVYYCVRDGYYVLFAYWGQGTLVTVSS VL: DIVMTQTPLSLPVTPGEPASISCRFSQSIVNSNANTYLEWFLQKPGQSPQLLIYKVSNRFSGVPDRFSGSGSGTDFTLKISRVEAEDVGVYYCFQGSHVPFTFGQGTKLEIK	2.72
hAb007LH3L1a (antibody, human IgG1, V domains shown, Humanized F3.81.19; VH H3 + VL L1a; expressed as human IgG1) VH: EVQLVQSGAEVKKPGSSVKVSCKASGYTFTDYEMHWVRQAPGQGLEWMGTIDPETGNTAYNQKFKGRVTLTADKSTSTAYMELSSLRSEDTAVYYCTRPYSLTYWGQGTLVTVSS VL: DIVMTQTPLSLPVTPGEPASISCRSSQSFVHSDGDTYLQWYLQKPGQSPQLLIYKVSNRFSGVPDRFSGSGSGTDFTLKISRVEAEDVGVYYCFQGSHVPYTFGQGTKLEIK	2.04
hAb003LH2L1b (antibody, human IgG1, V domains shown, Humanized F2.154.1; VH H2 + VL L1b; expressed as human IgG1) VH: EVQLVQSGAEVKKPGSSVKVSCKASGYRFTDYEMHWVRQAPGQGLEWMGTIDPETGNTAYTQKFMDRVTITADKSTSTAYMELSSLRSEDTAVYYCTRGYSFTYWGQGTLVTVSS VL: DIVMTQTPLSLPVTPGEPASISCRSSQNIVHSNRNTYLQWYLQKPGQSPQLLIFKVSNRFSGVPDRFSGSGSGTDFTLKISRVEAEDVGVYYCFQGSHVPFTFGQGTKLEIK	2.5
hAb003LH3L1a (antibody, human IgG1, V domains shown, Humanized F2.154.1; VH H3 + VL L1a; expressed as human IgG1) VH: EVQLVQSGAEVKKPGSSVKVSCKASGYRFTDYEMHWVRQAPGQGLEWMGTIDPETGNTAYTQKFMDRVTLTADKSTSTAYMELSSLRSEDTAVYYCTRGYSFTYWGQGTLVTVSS VL: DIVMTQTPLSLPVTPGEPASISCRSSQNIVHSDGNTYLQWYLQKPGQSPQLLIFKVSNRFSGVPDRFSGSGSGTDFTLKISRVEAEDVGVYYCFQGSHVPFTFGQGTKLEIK	2.15

Please look up its OD450 at 13.33 nM: hAb007LH2L1a (antibody, human IgG1, V domains shown, Humanized F3.81.19; VH H2 + VL L1a; expressed as human IgG1) VH: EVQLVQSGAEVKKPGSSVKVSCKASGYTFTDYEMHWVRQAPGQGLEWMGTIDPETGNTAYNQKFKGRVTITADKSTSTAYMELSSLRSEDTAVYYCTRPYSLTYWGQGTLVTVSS VL: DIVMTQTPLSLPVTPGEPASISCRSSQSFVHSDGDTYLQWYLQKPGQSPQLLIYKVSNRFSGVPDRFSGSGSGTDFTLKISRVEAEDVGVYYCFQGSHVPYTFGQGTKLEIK
2.12

Now try hAb006LH3L1b (antibody, human IgG1, V domains shown, Humanized F3.38.7; VH H3 + VL L1b; expressed as human IgG1) VH: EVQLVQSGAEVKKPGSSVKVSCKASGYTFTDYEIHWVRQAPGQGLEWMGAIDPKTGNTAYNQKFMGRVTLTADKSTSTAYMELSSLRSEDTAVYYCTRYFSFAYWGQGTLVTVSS VL: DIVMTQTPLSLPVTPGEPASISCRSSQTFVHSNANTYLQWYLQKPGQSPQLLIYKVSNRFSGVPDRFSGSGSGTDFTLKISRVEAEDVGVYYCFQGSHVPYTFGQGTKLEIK .
2.36

Now try hAb005LH2L1b (antibody, human IgG1, V domains shown, Humanized F3.54.12; VH H2 + VL L1b; expressed as human IgG1) VH: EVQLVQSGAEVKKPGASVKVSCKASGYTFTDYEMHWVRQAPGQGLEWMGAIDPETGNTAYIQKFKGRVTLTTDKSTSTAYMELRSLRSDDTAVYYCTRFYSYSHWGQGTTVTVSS VL: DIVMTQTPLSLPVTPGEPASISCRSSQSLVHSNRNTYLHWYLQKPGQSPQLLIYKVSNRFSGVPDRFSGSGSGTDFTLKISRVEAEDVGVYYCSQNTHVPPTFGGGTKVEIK .
1.07

Now try hAb005LH1L1 (antibody, human IgG1, V domains shown, Humanized F3.54.12; VH H1 + VL L1; expressed as human IgG1) VH: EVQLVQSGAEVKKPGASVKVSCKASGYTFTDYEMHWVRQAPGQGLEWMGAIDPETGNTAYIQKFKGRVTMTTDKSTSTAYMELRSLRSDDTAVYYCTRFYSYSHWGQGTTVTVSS VL: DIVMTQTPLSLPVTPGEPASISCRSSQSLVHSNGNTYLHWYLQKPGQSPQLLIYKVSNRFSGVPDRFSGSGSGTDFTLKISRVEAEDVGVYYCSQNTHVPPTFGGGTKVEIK .
1.1

Now try hAb001H1L1 (antibody, human IgG1, V domains shown, Humanized F2.169.2; VH H1 + VL L1; expressed as human IgG1) VH: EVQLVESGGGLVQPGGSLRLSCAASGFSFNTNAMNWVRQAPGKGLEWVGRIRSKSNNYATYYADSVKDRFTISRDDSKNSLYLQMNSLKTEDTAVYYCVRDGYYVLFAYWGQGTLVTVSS VL: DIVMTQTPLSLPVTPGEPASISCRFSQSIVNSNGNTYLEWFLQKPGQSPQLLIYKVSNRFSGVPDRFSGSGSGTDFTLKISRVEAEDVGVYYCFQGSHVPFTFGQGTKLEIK .
2.72
